Recorded values, source ChEMBL document CHEMBL4689842.

# System: U2OS
# Procedure Summary: Incucyte cell viability with U2OS; further: filed as whole numbers so only -1 and 0 and 1 occur
# Assay type: toxicity, cell-based
# Recorded Conditions: human, 12 h, 10 µM, compound concentration 10 uM, replicate number 2, timepoint 12 hours
Growth Rate values, listed per item

Answered examples (2):
> print(dat)
                                   compound  parameter.measured  result
1      O=c1nc(-c2ccccn2)sc2ccccc12 [BTZO-1]         Growth Rate       1
2  CN(C)CC#Cc1ccc(OCCCc2sc(N3CCc4cccc(C(=O)Nc5nc6ccccc6s5)c4C3)nc2C(=O)O)c(F)c1 [A-1155463]         Growth Rate       1

# next compound below
QUERY: Supply measured Growth Rate of Cn1cc(-c2[nH]c3cc(NC(=O)[C@H](N)C4CCCCC4)cc4c3c2C=NNC4=O)cn1 in your reply.
RESULT: 1

###

Population Membrane Permeable-Phenotype (%) values, listed per item
# System: Fibroblast
# Procedure Summary: Multiplex assay against human fibroblast
# Format: toxicity, cell-based
# Recorded Conditions: 12 h, 1 µM, compound concentration 1 uM, replicate 1
Write it as a number; the unit % goes unstated.

QUERY: # lookup: Fibroblast Population Membrane Permeable-Phenotype (%), key = Cc1nc(-c2ccc(-c3ccc(C(=O)N4CCc5cc6c(cc54)C4(CCN(C)CC4)CO6)cc3)c(C)c2)no1 [SB-224289]
RESULT: 18

QUERY: # lookup: Fibroblast Population Membrane Permeable-Phenotype (%), key = CNCc1ccc(-c2cc(-c3nc(-c4ccc(S(=O)(=O)C(C)C)cc4)cnc3N)on2)cc1 [BERZOSERTIB]
RESULT: 1

QUERY: # lookup: Fibroblast Population Membrane Permeable-Phenotype (%), key = OC1(c2ccc(Cl)cc2)CCN(Cc2c[nH]c3ccccc23)CC1
RESULT: 22

QUERY: # lookup: Fibroblast Population Membrane Permeable-Phenotype (%), key = COc1cccc([C@@H](C)NCCCc2ccccc2Cl)c1.Cl [TECALCET HYDROCHLORIDE]
RESULT: 22

QUERY: # lookup: Fibroblast Population Membrane Permeable-Phenotype (%), key = COc1ncc(-c2ccc3nccc(-c4ccnnc4)c3c2)cc1NS(=O)(=O)c1ccc(F)cc1F [OMIPALISIB]
RESULT: 28

QUERY: # lookup: Fibroblast Population Membrane Permeable-Phenotype (%), key = CC[C@H](C)C(=O)O[C@H]1C[C@@H](C)C=C2C=C[C@H](C)[C@H](CC[C@@H]3C[C@@H](O)CC(=O)O3)[C@H]21 [LOVASTATIN]
RESULT: 23

QUERY: # lookup: Fibroblast Population Membrane Permeable-Phenotype (%), key = Cc1csc2c(N[C@@H](C)CN3CCN(S(=O)(=O)c4ccc(Cl)c(Cl)c4)CC3)ncnc12
RESULT: 33

QUERY: # lookup: Fibroblast Population Membrane Permeable-Phenotype (%), key = C[C@@H](NCCCc1cccc(C(F)(F)F)c1)c1cccc2ccccc12.Cl [CINACALCET HYDROCHLORIDE]
RESULT: 12

QUERY: # lookup: Fibroblast Population Membrane Permeable-Phenotype (%), key = CCN(CC)CCCCNc1ncc2cc(-c3cc(OC)cc(OC)c3)c(NC(=O)NC(C)(C)C)nc2n1 [PD-173074]
RESULT: 2

QUERY: # lookup: Fibroblast Population Membrane Permeable-Phenotype (%), key = Cc1c(-c2ccc(O)cc2)n(Cc2ccc(OCCN3CCCCCC3)cc2)c2ccc(O)cc12 [BAZEDOXIFENE]
RESULT: 16
